Measured melting point accompanies every entry in the list below.
observation_type: melting point

| compound | result |
| --- | --- |
| COc1cc2nccc(Oc3ccc(NS(=O)(=O)c4cc(Cl)cc(Cl)c4OC)c(F)c3)c2cc1OC | 193 to 195 °C |
| COc1cc2nccc(Oc3ccc(NS(=O)(=O)c4cccc(-c5ncccn5)c4)cc3F)c2cc1OC | 105 to 107 °C |
| COc1cc2nccc(Oc3ccc(NS(=O)(=O)c4ccccc4C(F)(F)F)cc3OC)c2cc1OC | 198 to 199 °C |
| COc1cc2nccc(Oc3ccc(NS(=O)(=O)c4ccc(Cl)cc4F)cc3F)c2cc1OC | 99 to 101 °C |
| COc1cc2c(Oc3ccc(NS(=O)(=O)c4c(F)cccc4F)cc3F)ccnc2cc1OCCCN1CCCC(C)C1 (stereo not shown) | 117 to 119 °C |
| COc1ccc(S(=O)(=O)Nc2ccc(Oc3ccnc4cc(OC)c(OC)cc34)cc2F)cc1F | 230 to 232 °C |
| COc1cc2nccc(Oc3ccc(NS(=O)(=O)c4ccccc4Cl)c(F)c3)c2cc1OC | 232 to 234 °C |
| COc1cc2nccc(Oc3ccc(NS(=O)(=O)c4ccc(OC)c5ccccc45)c(F)c3)c2cc1OC | 226 to 227 °C |
| COc1cc2c(Oc3ccc(NS(=O)(=O)c4cccc(-c5ccccc5)c4)c(C)c3)ccnc2cc1OCCN1CCOCC1 | 105 to 107 °C |
| COc1cc2nccc(Oc3ccc(NS(=O)(=O)c4ccc(C)c(F)c4)c(F)c3)c2cc1OC | 211 to 212 °C |
| COc1cc2c(Oc3ccc(NS(=O)(=O)c4ccccc4C(F)(F)F)cc3F)ccnc2cc1OCCN1CCOCC1 | 178 to 180 °C |
| COc1cc2c(Oc3ccc(NS(=O)(=O)c4ccccc4Br)cc3F)ccnc2cc1OCCCN1CCOCC1 | 185 to 188 °C |
| COc1cc2nccc(Oc3ccc(NS(=O)(=O)c4ccc(-c5ccccc5)cc4)cc3OC)c2cc1OC | 128 to 131 °C |
| COc1cc2c(Oc3ccc(NS(=O)(=O)c4ccc(Cl)cc4F)cc3F)ccnc2cc1OCCCN1CCCC(C)C1 (stereo not shown) | 136 to 138 °C |
| COc1cc2c(Oc3ccc(NS(=O)(=O)c4ccccc4F)cc3F)ccnc2cc1OCCCN1CCCC(C)C1 (stereo not shown) | 102 to 106 °C |
| COc1cc2c(Oc3ccc(NS(=O)(=O)c4ccccc4C(F)(F)F)cc3F)ccnc2cc1OCCCN1CCOCC1 | 180 to 181 °C |

Reference for the values: patent US9206130B2
